B1: TPR 5TU (parent)
chain: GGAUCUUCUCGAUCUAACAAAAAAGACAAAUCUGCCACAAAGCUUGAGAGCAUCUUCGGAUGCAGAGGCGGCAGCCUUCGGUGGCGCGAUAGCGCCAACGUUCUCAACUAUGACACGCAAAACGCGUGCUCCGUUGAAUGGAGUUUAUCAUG

# Variants of: B1
# protocol description: polymerase ribozyme fitness, log enrichment relative to wild type (log ratio); higher = more active; in vitro selection for triplet polymerase activity
Variants at the floor of the assay were thinned out.
experimental readout: polymerase ribozyme fitness (log ratio)
Reply briefly: the number, and no unit.

stdin: Supply measured polymerase ribozyme fitness (log ratio) of A26U A147U in your reply.
stdout: -0.0486

stdin: Find the measured polymerase ribozyme fitness (log ratio) of C14A C93U and report it.
stdout: -2.33

stdin: Retrieve polymerase ribozyme fitness (log ratio) measured for U15G A19U A91U and print it.
stdout: -3.99

stdin: Specify polymerase ribozyme fitness (log ratio) for U56A G117C and stop.
stdout: -0.369

stdin: For A47C A119G , write its polymerase ribozyme fitness (log ratio).
stdout: 0.0948

stdin: Query polymerase ribozyme fitness (log ratio) for A21C U56G A89C C96A C116G A119C
stdout: -2.02

stdin: Read the entry C57A A60G U101A U109A A113U and write its reported polymerase ribozyme fitness (log ratio).
stdout: -3.65

stdin: Quote polymerase ribozyme fitness (log ratio) reported for C57G A89U A98U please.
stdout: -1.18

stdin: Fill in reported polymerase ribozyme fitness (log ratio) for this entry: A40G C125G
stdout: -2.5
